- test.method.notes: Tolerance and general health in ducks
- run.conditions: duck, in vivo; preliminary results; read-out: maximal tolerance dose in duck
quantity.name: MTD

What value of MTD has been reported for the following compound? O=C(/C=C/c1ccc(O)c(O)c1)OC1CC(OC(=O)/C=C/c2ccc(O)c(O)c2)(C(=O)O)CC(O)C1O (stereo not shown) [Compound A, 1,5-di-O-caffeoylquinic acid] > 4000 mg/kg

====

- measured.on: HBV DNA polymerase (Hepatitis B virus genotype D subtype ayw)
- Construct: HBV DNA polymerase in viral particles; host or cells: viral particles
- Sequence (P03156 whole entry): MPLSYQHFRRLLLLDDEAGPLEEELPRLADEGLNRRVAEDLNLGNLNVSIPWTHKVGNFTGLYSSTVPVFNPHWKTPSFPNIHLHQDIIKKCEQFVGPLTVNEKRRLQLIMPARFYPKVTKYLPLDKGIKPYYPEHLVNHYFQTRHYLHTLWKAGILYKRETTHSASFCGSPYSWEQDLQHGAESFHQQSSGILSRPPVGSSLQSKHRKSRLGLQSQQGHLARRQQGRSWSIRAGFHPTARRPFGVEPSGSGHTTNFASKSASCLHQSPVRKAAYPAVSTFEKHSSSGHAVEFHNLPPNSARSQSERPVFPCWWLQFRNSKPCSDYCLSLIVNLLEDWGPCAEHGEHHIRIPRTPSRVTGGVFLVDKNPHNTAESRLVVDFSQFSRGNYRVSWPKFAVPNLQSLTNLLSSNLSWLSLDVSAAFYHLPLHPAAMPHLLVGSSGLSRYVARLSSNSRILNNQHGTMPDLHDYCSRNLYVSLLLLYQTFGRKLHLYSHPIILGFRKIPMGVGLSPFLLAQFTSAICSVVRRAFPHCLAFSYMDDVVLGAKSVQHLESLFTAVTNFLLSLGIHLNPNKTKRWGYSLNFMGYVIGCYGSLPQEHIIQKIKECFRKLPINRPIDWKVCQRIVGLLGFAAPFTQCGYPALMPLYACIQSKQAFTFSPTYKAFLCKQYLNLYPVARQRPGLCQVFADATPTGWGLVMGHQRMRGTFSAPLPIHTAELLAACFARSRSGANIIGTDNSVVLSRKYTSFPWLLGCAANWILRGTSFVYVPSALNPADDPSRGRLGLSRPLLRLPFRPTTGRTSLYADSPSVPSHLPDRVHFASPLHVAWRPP
- test.method.notes: HBV DNA polymerase assay
- Type: biochemical
Give measured IC50 for each item. Keep answers brief.
The reply should be a number in µM, with the unit left off.

HBV DNA polymerase (Hepatitis B virus genotype D subtype ayw) / IC50 / O=C(/C=C/c1ccc(O)c(O)c1)OC1CC(OC(=O)/C=C/c2ccc(O)c(O)c2)(C(=O)O)CC(O)C1O (centres unmarked) [Compound A, 1,5-di-O-caffeoylquinic acid] : value? 59.3

// fetch HBV DNA polymerase (Hepatitis B virus genotype D subtype ayw) IC50 for O=C(O)P(=O)(O)O [PFA, reference compound] 184
